Known remaining at 24 h of a selection of compounds
# assayRemarks: In vitro stability in PBS
# Type: physicochemical
# measurementSetup: phosphate buffered saline, pH 7.4; ^203Pb-labeled; 24 h; 37 °C; n = 1; read-out: Stability in PBS, intact labeled ligand
readoutKind: remaining at 24 h

compound: C[C@@H](O)[C@H](NC(=O)[C@@H]1CSSC[C@H](NC(=O)[C@@H](Cc2ccccc2)NC(=O)CN2CCC(NC(=O)CN3CCN(CC(N)=O)CCN(CC(N)=O)CCN(CC(N)=O)CC3)CC2)C(=O)N[C@@H](Cc2ccc(O)cc2)C(=O)N[C@H](Cc2c[nH]c3ccccc23)C(=O)N[C@@H](CCCCN)C(=O)N[C@@H]([C@@H](C)O)C(=O)N1)C(=O)O [[^203Pb]Pb-eSOMA-02, metal not drawn]
experimentalValue: > 97%

compound: C[C@@H](O)[C@H](NC(=O)[C@@H]1CSSC[C@H](NC(=O)[C@@H](Cc2ccccc2)NC(=S)Nc2ccc(CC3CN(CC(N)=O)CCN(CC(N)=O)CCN(CC(N)=O)CCN3CC(N)=O)cc2)C(=O)N[C@@H](Cc2ccc(O)cc2)C(=O)N[C@H](Cc2c[nH]c3ccccc23)C(=O)N[C@@H](CCCCN)C(=O)N[C@@H]([C@@H](C)O)C(=O)N1)C(=O)O (stereo partly drawn) [[^203Pb]Pb-eSOMA-03, metal not drawn]
experimentalValue: 15%

compound: C[C@@H](O)[C@H](NC(=O)[C@@H]1CSSC[C@H](NC(=O)[C@@H](Cc2ccccc2)NC(=O)[C@H]2CC[C@H](CNC(=O)CN3CCN(CC(N)=O)CCN(CC(N)=O)CCN(CC(N)=O)CC3)CC2)C(=O)N[C@@H](Cc2ccc(O)cc2)C(=O)N[C@H](Cc2c[nH]c3ccccc23)C(=O)N[C@@H](CCCCN)C(=O)N[C@@H]([C@@H](C)O)C(=O)N1)C(=O)O [[^203Pb]Pb-eSOMA-01, metal not drawn]
experimentalValue: > 97%

---

# assayRemarks: LogD7.4 by shake-flask method (n-octanol/PBS)
# Type: physicochemical
# measurementSetup: ^203Pb-labeled compound; n-octanol/PBS pH 7.4; n = 3
# Experimental: Distribution coefficients (LogD7.4) were determined by the shake-flask method. A sample containing the ^203Pb-labeled compound (~1 MBq) was added to a vial containing PBS (600 µL, pH 7.4) and n-octanol (600 µL). […] Samples (100 µL) of the n-octanol and aqueous phases were taken and measured by a gamma counter. The LogD7.4 value was calculated by using the equation: LogD7.4 = log [(counts in the n-octanol phase)/(counts in the aqueous phase)]. […]

compound: C[C@@H](O)[C@H](NC(=O)[C@@H]1CSSC[C@H](NC(=O)[C@@H](Cc2ccccc2)NC(=O)CN2CCN(CC(N)=O)CCN(CC(N)=O)CCN(CC(N)=O)CC2)C(=O)N[C@@H](Cc2ccc(O)cc2)C(=O)N[C@H](Cc2c[nH]c3ccccc23)C(=O)N[C@@H](CCCCN)C(=O)N[C@@H]([C@@H](C)O)C(=O)N1)C(=O)O [[^203Pb]Pb-DOTAM-TATE, metal not drawn, reference compound]
logD: -1.41

compound: C[C@@H](O)[C@H](NC(=O)[C@@H]1CSSC[C@H](NC(=O)[C@@H](Cc2ccccc2)NC(=O)CN2CCC(NC(=O)CN3CCN(CC(N)=O)CCN(CC(N)=O)CCN(CC(N)=O)CC3)CC2)C(=O)N[C@@H](Cc2ccc(O)cc2)C(=O)N[C@H](Cc2c[nH]c3ccccc23)C(=O)N[C@@H](CCCCN)C(=O)N[C@@H]([C@@H](C)O)C(=O)N1)C(=O)O [[^203Pb]Pb-eSOMA-02, metal not drawn]
logD: -1.88

compound: C[C@@H](O)[C@H](NC(=O)[C@@H]1CSSC[C@H](NC(=O)[C@@H](Cc2ccccc2)NC(=O)[C@H]2CC[C@H](CNC(=O)CN3CCN(CC(N)=O)CCN(CC(N)=O)CCN(CC(N)=O)CC3)CC2)C(=O)N[C@@H](Cc2ccc(O)cc2)C(=O)N[C@H](Cc2c[nH]c3ccccc23)C(=O)N[C@@H](CCCCN)C(=O)N[C@@H]([C@@H](C)O)C(=O)N1)C(=O)O [[^203Pb]Pb-eSOMA-01, metal not drawn]
logD: -1.99

---

# assayRemarks: Ex vivo biodistribution with lead-203
# Format: in vivo, mouse
# measurementSetup: mouse, stomach; 24 h post-injection; n = 4; read-out: Stomach uptake
# Excerpt: Six-week-old male Balb/c nu/nu-specific and opportunistic pathogen-tree (SOPF) mice (Janvier Labs, Le Genest-Saint-Isle, France) were housed in individually ventilated cages, with four mice per cage. Upon arrival, the mice were acclimated for 1 week with access to food and water ad libitum. […]
readoutKind: tissue uptake at 24 h (%ID/g)

molecule: C[C@@H](O)[C@H](NC(=O)[C@@H]1CSSC[C@H](NC(=O)[C@@H](Cc2ccccc2)NC(=O)CN2CCC(NC(=O)CN3CCN(CC(N)=O)CCN(CC(N)=O)CCN(CC(N)=O)CC3)CC2)C(=O)N[C@@H](Cc2ccc(O)cc2)C(=O)N[C@H](Cc2c[nH]c3ccccc23)C(=O)N[C@@H](CCCCN)C(=O)N[C@@H]([C@@H](C)O)C(=O)N1)C(=O)O [[^203Pb]Pb-eSOMA-02, metal not drawn]
readoutKind: tissue uptake at 24 h
unitInfo: %ID/g
experimentalValue: 0.67
//
molecule: C[C@@H](O)[C@H](NC(=O)[C@@H]1CSSC[C@H](NC(=O)[C@@H](Cc2ccccc2)NC(=O)[C@H]2CC[C@H](CNC(=O)CN3CCN(CC(N)=O)CCN(CC(N)=O)CCN(CC(N)=O)CC3)CC2)C(=O)N[C@@H](Cc2ccc(O)cc2)C(=O)N[C@H](Cc2c[nH]c3ccccc23)C(=O)N[C@@H](CCCCN)C(=O)N[C@@H]([C@@H](C)O)C(=O)N1)C(=O)O [[^203Pb]Pb-eSOMA-01, metal not drawn]
readoutKind: tissue uptake at 24 h
unitInfo: %ID/g
experimentalValue: 0.75

---

# assayRemarks: Biodistribution study with lead-212
# Assay type: in vivo, mouse
# measurementSetup: mouse, muscle, intravenous, 100 kBq, 1 h p.i.; n = 4; read-out: Muscle uptake
readoutKind: tissue uptake at 1 h (%ID/g)

molecule: C[C@@H](O)[C@H](NC(=O)[C@@H]1CSSC[C@H](NC(=O)[C@@H](Cc2ccccc2)NC(=O)[C@H]2CC[C@H](CNC(=O)CN3CCN(CC(N)=O)CCN(CC(N)=O)CCN(CC(N)=O)CC3)CC2)C(=O)N[C@@H](Cc2ccc(O)cc2)C(=O)N[C@H](Cc2c[nH]c3ccccc23)C(=O)N[C@@H](CCCCN)C(=O)N[C@@H]([C@@H](C)O)C(=O)N1)C(=O)O [[^212Pb]Pb-eSOMA-01, metal not drawn]
unitInfo: %ID/g
experimentalValue: 0.22

---

# assayRemarks: Ex vivo biodistribution with lead-203
# Format: in vivo, mouse
# measurementSetup: mouse, lungs; 24 h post-injection; n = 4; read-out: Lungs uptake
Known tissue uptake at 24 h of a selection of compounds

compound: C[C@@H](O)[C@H](NC(=O)[C@@H]1CSSC[C@H](NC(=O)[C@@H](Cc2ccccc2)NC(=O)[C@H]2CC[C@H](CNC(=O)CN3CCN(CC(N)=O)CCN(CC(N)=O)CCN(CC(N)=O)CC3)CC2)C(=O)N[C@@H](Cc2ccc(O)cc2)C(=O)N[C@H](Cc2c[nH]c3ccccc23)C(=O)N[C@@H](CCCCN)C(=O)N[C@@H]([C@@H](C)O)C(=O)N1)C(=O)O [[^203Pb]Pb-eSOMA-01, metal not drawn]
tissue uptake at 24 h (%ID/g): 0.36

compound: C[C@@H](O)[C@H](NC(=O)[C@@H]1CSSC[C@H](NC(=O)[C@@H](Cc2ccccc2)NC(=O)CN2CCC(NC(=O)CN3CCN(CC(N)=O)CCN(CC(N)=O)CCN(CC(N)=O)CC3)CC2)C(=O)N[C@@H](Cc2ccc(O)cc2)C(=O)N[C@H](Cc2c[nH]c3ccccc23)C(=O)N[C@@H](CCCCN)C(=O)N[C@@H]([C@@H](C)O)C(=O)N1)C(=O)O [[^203Pb]Pb-eSOMA-02, metal not drawn]
tissue uptake at 24 h (%ID/g): 0.53

---

Known tissue uptake at 24 h of a selection of molecules
# assayRemarks: Ex vivo biodistribution with lead-203
# Format: in vivo, mouse
# measurementSetup: mouse, small intestine; 24 h post-injection; n = 4; read-out: Small Intestine uptake

molecule: C[C@@H](O)[C@H](NC(=O)[C@@H]1CSSC[C@H](NC(=O)[C@@H](Cc2ccccc2)NC(=O)[C@H]2CC[C@H](CNC(=O)CN3CCN(CC(N)=O)CCN(CC(N)=O)CCN(CC(N)=O)CC3)CC2)C(=O)N[C@@H](Cc2ccc(O)cc2)C(=O)N[C@H](Cc2c[nH]c3ccccc23)C(=O)N[C@@H](CCCCN)C(=O)N[C@@H]([C@@H](C)O)C(=O)N1)C(=O)O [[^203Pb]Pb-eSOMA-01, metal not drawn]
unitInfo: %ID/g
tissue uptake at 24 h: 0.12
--
molecule: C[C@@H](O)[C@H](NC(=O)[C@@H]1CSSC[C@H](NC(=O)[C@@H](Cc2ccccc2)NC(=O)CN2CCC(NC(=O)CN3CCN(CC(N)=O)CCN(CC(N)=O)CCN(CC(N)=O)CC3)CC2)C(=O)N[C@@H](Cc2ccc(O)cc2)C(=O)N[C@H](Cc2c[nH]c3ccccc23)C(=O)N[C@@H](CCCCN)C(=O)N[C@@H]([C@@H](C)O)C(=O)N1)C(=O)O [[^203Pb]Pb-eSOMA-02, metal not drawn]
unitInfo: %ID/g
tissue uptake at 24 h: 0.24
